Listed here are compounds together with their documented pIC50.
Study target: UniProt:P24941
Experiment: Cdk2 Enzymatic TR-FRET Assay
Condition context: CDK2/CycE 5 nM, ATP 100 μM, 60 minutes pre-incubation with compound; read-out: CDK2 Kinase
pIC50: −log10 of the molar value.

Here is how some compounds turned out for pIC50.
compound=O=c1ccc2cnc(NC3CCOCC3)nc2n1CCCS(=O)(=O)n1cnc(C2CC2)n1 measurement_kind=pIC50 measured="> 5.00"
compound="O=c1ccc2cnc(NC3CCOC3)nc2n1CCCS(=O)(=O)n1cnc(C2CC2)n1 (stereo not shown)" measurement_kind=pIC50 measured="4.00 to 5.00"

Ask: Hello, please tell me recorded pIC50 for this one: `CC(C)N1CCC(Nc2ncc3ccc(=O)n(CCCS(=O)(=O)n4cnc(C5CC5)n4)c3n2)CC1`
Reply: < 3.70

Ask: Hello, please tell me recorded pIC50 for this one: `CS(=O)(=O)N1CCC(Nc2ncc3ccc(=O)n(CCOCCCS(=O)(=O)n4cncn4)c3n2)CC1`
Reply: > 5.00

Ask: Hello, please tell me recorded pIC50 for this one: `CS(=O)(=O)N1CCC(Nc2ncc3cc(Cl)c(=O)n(CCCS(=O)(=O)n4cnc(-c5ccccc5)n4)c3n2)CC1`
Reply: > 5.00

Ask: Hello, please tell me recorded pIC50 for this one: `CS(=O)(=O)N1CCC(Nc2ncc3cc(CO)c(=O)n(CCCS(=O)(=O)n4cncn4)c3n2)CC1`
Reply: > 5.00

Ask: Hello, please tell me recorded pIC50 for this one: `CS(=O)(=O)N1CCC(Nc2ncc3ccc(=O)n(CC(=O)NCc4ccc(S(=O)(=O)n5cnc(C6CC6)n5)cc4)c3n2)CC1`
Reply: > 5.00

Ask: Hello, please tell me recorded pIC50 for this one: `CS(=O)(=O)N1CCC(Nc2ncc3ccc(=O)n(CCOCCCS(=O)(=O)n4cnc(-c5ccccc5)n4)c3n2)CC1`
Reply: 4.00 to 5.00

Ask: Hello, please tell me recorded pIC50 for this one: `O=c1ccc2cnc(NC3CC(F)(F)C3)nc2n1CCCS(=O)(=O)n1cnc(C2CC2)n1`
Reply: > 5.00

Ask: Hello, please tell me recorded pIC50 for this one: `O=c1ccc2cnc(NC3CC3)nc2n1CCCS(=O)(=O)n1cnc(C2CC2)n1`
Reply: > 5.00

These data points were gathered from patent US20230406853A1.
